- METHOD: TR-FRET detection interference compounds, primary screen, artefact control for PPARgamma SRC-1 recruitment agonists, biochemical, TR-FRET emission ratio (AID 1051)
- RUN PARAMETERS: TR-FRET detection artefact counter-screen, at 8 µM, active compounds read high
The campaign covered roughly 99,000 compounds. About 340 (0.34%) were called active. For the sample, actives were picked, then their nearest neighbours and some compounds at random.
OBSERVATION TYPE: TR-FRET ratio
Give the figure by itself; no unit, no explanation.

Query block: For the compound Cc1ccc(NC(=S)N(CCN2CCCCC2)Cc2ccco2)cc1C , what TR-FRET ratio is on record?
Result block: 1560

Query block: For the compound CN1CCN(C(=O)N2c3ccccc3CCc3ccccc32)CC1 , what TR-FRET ratio is on record?
Result block: 1720

Query block: For the compound CC(NC(=O)COC(=O)c1ccc2c(c1)OCO2)c1ccccc1 (stereo not given) , what TR-FRET ratio is on record?
Result block: 1700

Query block: For the compound Cc1ccc(N2C(=O)C(NC(=O)c3c(F)cccc3F)(C(F)(F)F)C3=C2CC(C)(C)CC3=O)cc1 (stereo not given) , what TR-FRET ratio is on record?
Result block: 1770

Query block: For the compound Cc1ccc(N2C(=O)C(CC(=O)Nc3cccc(F)c3)N(CCc3ccncc3)C2=O)cc1 (stereo not given) , what TR-FRET ratio is on record?
Result block: 1810

Query block: For the compound Cc1ccccc1-c1n[nH]c(=S)n1/N=C/c1ccc(-c2ccccc2Br)o1 , what TR-FRET ratio is on record?
Result block: 2950

Query block: For the compound CSc1c(SCc2ccccc2)cnn(Cc2ccccc2)c1=O , what TR-FRET ratio is on record?
Result block: 2320

Query block: For the compound Cc1cc(C)nc(/N=C2\NC(=O)CC(C(=O)O)N2c2ccc(Cl)cc2Cl)n1 (stereo not given) , what TR-FRET ratio is on record?
Result block: 1900

Query block: For the compound O=C(Nc1ccccc1)N1CCN(C(=O)Nc2ccccc2)CC1 , what TR-FRET ratio is on record?
Result block: 1700

Query block: For the compound COc1ccc(S(=O)(=O)N(C)C)cc1NC(=O)CSc1ncccn1 , what TR-FRET ratio is on record?
Result block: 1990

---

- METHOD: TR-FRET detection interference compounds, primary screen, artefact control for PPARgamma SRC-1 recruitment agonists, biochemical, TR-FRET emission ratio (AID 1051)
- RUN PARAMETERS: TR-FRET detection artefact counter-screen, at 8 µM
Screen size: about 99,000 compounds; about 340 (0.34%) were called active. Rule as the data show it: active = TR-FRET ratio above about 2300; inactive = the rest. For the sample, actives were picked, then their nearest neighbours and some compounds at random.
Your response should consist of one outcome taken from true (1) (active), false (0) (inactive)

Query block: Could you check what this test reported for O=[N+]([O-])c1cc(S(=O)(=O)N2CCCC2)ccc1NN=C1CCCC1 ?
Result block: false (0)

Query block: Could you check what this test reported for CCc1ccccc1N1C(=O)C2C3CC(=O)C(c4ccccc43)C2C1=O (configuration not stated) ?
Result block: false (0)

Query block: Could you check what this test reported for COc1ccc(OCCCC(=O)Nc2nnc(C3CCCO3)s2)cc1 (configuration not stated) ?
Result block: false (0)

Query block: Could you check what this test reported for O=C(OCC(=O)N1CCOCC1)c1ccc(N2CCOCC2)c([N+](=O)[O-])c1 ?
Result block: false (0)

Query block: Could you check what this test reported for Cc1ccc(C(=O)NC(=S)Nc2ccccc2C)cc1 ?
Result block: false (0)

Query block: Could you check what this test reported for COc1cc(/C=C/C(=O)OCC(=O)N2CCOCC2)ccc1OCC#N ?
Result block: false (0)

Query block: Could you check what this test reported for Cc1nc(N2CCOCC2)c2c(C)c(C(=O)Nc3ccc(C(F)(F)F)cc3)sc2n1 ?
Result block: false (0)

Query block: Could you check what this test reported for Cc1ccc(Sc2ccncc2S(N)(=O)=O)cc1 ?
Result block: false (0)

Query block: Could you check what this test reported for COCCNC(=O)C(OC(=O)c1cccs1)c1ccc(F)cc1 (configuration not stated) ?
Result block: false (0)

Query block: Could you check what this test reported for Cc1cc(NC(=O)CSc2nc3c(cc2C#N)CCCCC3)no1 ?
Result block: false (0)

Query block: Could you check what this test reported for Cc1cc(NC(=O)COC(=O)c2ccc(F)c(S(=O)(=O)N3CCOCC3)c2)no1 ?
Result block: false (0)

Query block: Could you check what this test reported for Cc1cccc(NC(=O)c2sc(-c3ccccc3)nc2-c2ccc([N+](=O)[O-])cc2)c1 ?
Result block: false (0)

Query block: Could you check what this test reported for NC(=O)COC(=O)c1cc(S(=O)(=O)N2CCN(c3ccccc3)CC2)ccc1Cl ?
Result block: false (0)

Query block: Could you check what this test reported for N#Cc1ccc(C(=O)Nc2nc(-c3cccs3)c(C(=O)C(F)(F)F)s2)cc1 ?
Result block: false (0)

Query block: Could you check what this test reported for Cc1cc(C)cc(NC(=S)NCCCN2CCOCC2)c1 ?
Result block: false (0)

Query block: Could you check what this test reported for CCCCOc1ccc(C(=O)NCC(=O)OCC(=O)N2CCN(S(=O)(=O)c3ccc(C)cc3C)CC2)cc1 ?
Result block: false (0)

Query block: Could you check what this test reported for CN(C(=O)CSc1nncc2ccccc12)C1CCCCC1 ?
Result block: false (0)

Query block: Could you check what this test reported for CC(=O)N1c2ccccc2N(Cc2ccc([N+](=O)[O-])cc2)C(=O)C1(C)C ?
Result block: false (0)

Query block: Could you check what this test reported for O=C(NCCCNc1ccc([N+](=O)[O-])cc1Cl)c1ccccc1F ?
Result block: false (0)

Query block: Could you check what this test reported for Cn1cnnc1SCc1nnc(-c2ccccc2Br)o1 ?
Result block: false (0)

Query block: Could you check what this test reported for COCC(C)NC(=O)CSc1nc2nn(-c3ccccc3)c(=O)c-2c2n1CCCCC2 (configuration not stated) ?
Result block: false (0)

Query block: Could you check what this test reported for Cc1ccc(-c2nc(-c3cccnc3)sc2CC(=O)Nc2ccc(C)c(Cl)c2)cc1 ?
Result block: true (1)

---

- METHOD: TR-FRET detection interference compounds, primary screen, artefact control for PPARgamma SRC-1 recruitment agonists, biochemical, TR-FRET emission ratio (AID 1051)
- RUN PARAMETERS: TR-FRET detection artefact counter-screen, at 8 µM, active compounds read high
The whole screen tested about 99,000 compounds, of which about 340 (0.34%) were called active. Only a selection was taken, and actives are over-represented in it overall.
OBSERVATION TYPE: TR-FRET ratio
Give the figure by itself; no unit, no explanation.

Query block: For the compound CSc1nc2c(c(=O)[nH]1)C(c1cccc(Cl)c1Cl)CC(=O)N2 (stereo not given) , what TR-FRET ratio is on record?
Result block: 1770

Query block: For the compound Cc1nc(N)c(Br)c(C)c1Br , what TR-FRET ratio is on record?
Result block: 1890

Query block: For the compound CCOC(=O)c1sc(-c2cccc([N+](=O)[O-])c2)cc1N , what TR-FRET ratio is on record?
Result block: 1540

Query block: For the compound CC(C)C(c1nnnn1C(C)(C)C)N1CCN(Cc2cccnc2)CC1 (stereo not given) , what TR-FRET ratio is on record?
Result block: 1760

Query block: For the compound Cn1c(N)c(C(=O)COC(=O)c2ccccc2NCc2ccco2)c(=O)n(C)c1=O , what TR-FRET ratio is on record?
Result block: 1870

Query block: For the compound COc1ccc(N2CCN(CCCNC(=O)C3CCN(S(=O)(=O)N4CCOCC4)CC3)CC2)cc1 , what TR-FRET ratio is on record?
Result block: 1660

Query block: For the compound CC(C)n1c(=O)[nH]c2cc(C(=O)Nc3ccccc3)ccc21 , what TR-FRET ratio is on record?
Result block: 1850

Query block: For the compound Cc1nc2ccccc2c(C)c1C(=O)c1ccc(F)cc1 , what TR-FRET ratio is on record?
Result block: 1400

Query block: For the compound Cc1ccc(CN2CCN(/N=C/c3cccnc3)CC2)c(C)c1 , what TR-FRET ratio is on record?
Result block: 1720

Query block: For the compound CCc1ccc(CN(C)C(=O)CCc2nnc(-c3ccc(-c4ccccc4)cc3)o2)nc1 , what TR-FRET ratio is on record?
Result block: 1540

Origin of values: PubChem BioAssay AID1051
